Sourced from BindingDB's records for doi:10.1016/j.bmcl.2005.07.045

target: Muscarinic acetylcholine receptor M1/M2/M3/M4/M5; test: Agonistic activity against Muscarinic acetylcholine receptor of guinea pig ileal longitudinal muscle
pEC50: −log10 of the molar value.

{"molecule": "CCCCCC(=O)OC1CC2CC(OC(=O)CCCCC)C(C1)N2C (centres undefined)", "pEC50": 8.32}
{"molecule": "CN1C2CC(=O)CC1C(O)C2 (centres undefined)", "pEC50": 3.39}
{"molecule": "CC(=O)OC1CC2CC(OS(=O)(=O)c3cccc(C)c3)CC1N2C (centres undefined)", "pEC50": 7.05}
{"molecule": "CC(=O)OC1CC2CC(OC(=O)/C=C\\c3ccccc3)CC1N2 (centres undefined)", "pEC50": 5.70}
{"molecule": "CC(=O)OC1CC2CC(OS(=O)(=O)c3ccc([N+](=O)[O-])cc3)CC1N2C (centres undefined)", "pEC50": 7.35}
{"molecule": "CC(=O)OC1CC2CC(OC(=O)/C=C\\c3ccccc3)CC1N2C (centres undefined)", "pEC50": 3.93}
{"molecule": "CC(=O)OC1CC2CC(OC(=O)c3ccc(C)cc3)CC1N2C (centres undefined)", "pEC50": 5.36}
{"molecule": "CCCC(=O)OC1CC2CC(OC(C)=O)C(C1)N2C (centres undefined)", "pEC50": 5.30}
{"molecule": "CC(=O)OC1CC2CCC(C1)N2C (centres undefined)", "pEC50": 4.10}
{"molecule": "CCCCCCCCCC(=O)OC1CC2CC(OC(C)=O)C(C1)N2C (centres undefined)", "pEC50": 6.58}
{"molecule": "CCCCCCCC(=O)OC1CC2CC(OC(C)=O)C(C1)N2C (centres undefined)", "pEC50": 8.76}
{"molecule": "CCCCCCC(=O)OC1CC2CC(OC(C)=O)C(C1)N2C (centres undefined)", "pEC50": 7.57}
{"molecule": "CC(=O)OC1CC2CC(Cl)CC1N2C (centres undefined)", "pEC50": 4.94}
{"molecule": "CC(=O)OC1CC2CC(OC(C)=O)C(C1)N2C (centres undefined)", "pEC50": 5.35}
{"molecule": "CC(=O)OC1CC2CC(OS(=O)(=O)c3ccccc3)CC1N2C (centres undefined)", "pEC50": 7.30}
{"molecule": "CC(=O)OC1CC2CCCC1N2 (centres undefined)", "pEC50": 8.21}
{"molecule": "CC(=O)OC1CC2CC(OS(=O)(=O)c3ccc(C)cc3)CC1N2C (centres undefined)", "pEC50": 6.98}
{"molecule": "CCCCCC(=O)OC1CC2CC(OC(C)=O)C(C1)N2C (centres undefined)", "pEC50": 8.19}
{"molecule": "CC(=O)OC1CC2CC(=O)CC1N2C (centres undefined)", "pEC50": 4.83}
{"molecule": "CC(=O)OC1CC2CCCC1N2C (centres undefined)", "pEC50": 4.61}
{"molecule": "CCC(=O)OC1CC2CC(OC(=O)CC)C(C1)N2C (centres undefined)", "pEC50": 4.37}
{"molecule": "COc1ccc(C(=O)OC2CC3CC(OC(C)=O)C(C2)N3C)cc1 (centres undefined)", "pEC50": 4.52}
{"molecule": "CC(=O)OC1CC2NC1CCC2O (centres undefined)", "pEC50": 7.10}
{"molecule": "COc1ccc(S(=O)(=O)OC2CC3CC(OC(C)=O)C(C2)N3C)cc1 (centres undefined)", "pEC50": 7.03}
